- Measurement target: TIE-2 (Homo sapiens, UniProt Q02763)
- Sequence (Q02763 23-1124, species assumed): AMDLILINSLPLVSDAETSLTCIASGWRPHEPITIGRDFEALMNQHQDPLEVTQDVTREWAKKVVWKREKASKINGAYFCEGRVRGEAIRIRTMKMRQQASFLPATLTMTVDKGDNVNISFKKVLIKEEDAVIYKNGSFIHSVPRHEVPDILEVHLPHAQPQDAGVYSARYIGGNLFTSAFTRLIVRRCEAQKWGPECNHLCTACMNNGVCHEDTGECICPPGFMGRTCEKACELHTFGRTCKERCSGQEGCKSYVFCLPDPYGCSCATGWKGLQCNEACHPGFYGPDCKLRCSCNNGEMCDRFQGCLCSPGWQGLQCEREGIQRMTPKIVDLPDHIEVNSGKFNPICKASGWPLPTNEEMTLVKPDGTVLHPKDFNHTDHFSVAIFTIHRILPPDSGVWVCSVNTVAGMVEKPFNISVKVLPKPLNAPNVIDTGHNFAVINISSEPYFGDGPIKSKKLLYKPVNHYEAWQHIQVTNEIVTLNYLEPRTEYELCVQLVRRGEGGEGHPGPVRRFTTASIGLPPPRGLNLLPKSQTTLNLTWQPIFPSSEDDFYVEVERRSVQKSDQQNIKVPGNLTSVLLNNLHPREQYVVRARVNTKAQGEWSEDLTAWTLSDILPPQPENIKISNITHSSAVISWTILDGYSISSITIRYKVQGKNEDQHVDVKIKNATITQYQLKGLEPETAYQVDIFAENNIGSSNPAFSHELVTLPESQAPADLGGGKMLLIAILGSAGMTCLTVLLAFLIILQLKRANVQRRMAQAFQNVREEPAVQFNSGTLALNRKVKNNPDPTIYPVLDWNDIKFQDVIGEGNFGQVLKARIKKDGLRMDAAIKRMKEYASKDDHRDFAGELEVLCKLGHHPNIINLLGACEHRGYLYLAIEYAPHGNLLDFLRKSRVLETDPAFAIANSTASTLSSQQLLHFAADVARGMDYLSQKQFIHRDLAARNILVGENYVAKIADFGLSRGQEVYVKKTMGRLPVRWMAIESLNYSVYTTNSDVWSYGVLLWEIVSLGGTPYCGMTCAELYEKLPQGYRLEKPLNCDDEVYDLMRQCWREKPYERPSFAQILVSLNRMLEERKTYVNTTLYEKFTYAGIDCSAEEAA
- Measurement description: Inhibition of TIE-2 (flashplate kinase assay, poly(Glu, Tyr) phosphorylation, 33P-ATP)
- Type: biochemical
Readout name: pIC50
Remember the convention: pIC50 equals -log10 of concentration in molar.

# Molecule, pIC50
data = [
    ("FC(F)(F)c1cc(Cl)c2nc(Nc3ccc(Oc4ccncc4)cc3)[nH]c2c1 [(14)]", 6.05),
]

# ---- query molecule ----
Request the reported pIC50 associated with FC(F)(F)c1cc(Br)c2nc(Nc3ccc(Oc4ccncc4)cc3)[nH]c2c1 [(5)]
6.30
